Test system: UACC-257 melanoma
protocolSummary: NCI tumour cell line growth inhibition, 48 h
measurementLabel: GI50

// below: answered compounds
compound	testedOn	readoutValue
COc1ccc2c(c1)OC(N(C(C)=O)C(C)=O)=C(C#N)C2c1ccc(F)cc1 (stereo not given)	UACC-257 melanoma	23 µM
O=C1C(Cl)=C(Nc2cccc(O)c2)C(=O)N1c1cc(Cl)c(Cl)cc1Cl	UACC-257 melanoma	30.3 µM
CCN(CC)C(=S)SS(=O)(=O)c1ccc([N+](=O)[O-])cc1	UACC-257 melanoma	24 µM
CCOP(=O)(OCC)C(NC(c1ccccc1)c1ccccc1)c1cccc2ccccc12 (stereo not given)	UACC-257 melanoma	3.22 µM

// query Need GI50 of C[C@@H]1COCCN1c1cc(C2(S(C)(=N)=O)CC2)nc(-c2ccnc3[nH]ccc23)n1 (stereo not given in full) , thanks.
// result 11.7 µM
